# protocol.description: In vitro test for inhibition of [125I]CCK binding to Cholecystokinin type B receptor from guinea pig cortical membranes was determined
property.name: pIC50
By convention, pIC50 is the negative base-10 log of a molar concentration.

Examples with answers:
compound: Cc1cccc(NC(=O)NC2N=C(C3CCC3)c3ccccc3N(C)C2=O)c1 (stereo not drawn)
pIC50: 7.52
//
compound: Cc1cccc(NC(=O)NC2N=C(C3CCCC3)c3ccccc3N(C)C2=O)c1 (stereo not drawn)
pIC50: 7.80

We next turn to a different compound, shown below.
Recorded pIC50 of Cc1cccc(NC(=O)N[C@H]2N=C(C3CCCCC3)c3ccccc3N(C)C2=O)c1 , please.
6.77
